Origin of measurements: the supplement of paper PMC10127200

Test system: OVCAR4
Assay: Euclidean distance of Cell Painting phenotypic profile (signed KS, 77 features) to DMSO centroid (dimensionless distance); 5 or 10 uM (library dependent); higher = stronger phenotypic change vs DMSO (phenoactivity)
Conditions: 48 h
Respond with true for Euclidean distance values of 1 and above, false for values below.

COC(=O)N[C@H](C(=O)N1CC2(CC2)C[C@H]1c1nc(-c2ccc3c(c2)C(F)(F)c2cc(-c4ccc5[nH]c([C@@H]6[C@H]7CC[C@H](C7)N6C(=O)[C@@H](NC(=O)OC)C(C)C)nc5c4)ccc2-3)c[nH]1)C(C)C | true
Nc1nc(Nc2ccc(S(N)(=O)=O)cc2)nn1C(=O)c1c(F)cccc1F | true
CCOCc1nc2c(N)nc3ccccc3c2n1CC(C)(C)O | true
Oc1ncnc2[nH]ncc12 | true
CCn1c2ccccc2c2cc(Nc3ccnc(NCCCN4CCOCC4)n3)ccc21 | true
C[C@@H](O)[C@H]1C(=O)N2C(C(=O)O)=C(S[C@@H]3CN[C@H](C(=O)N(C)C)C3)[C@H](C)[C@H]12 | true
COc1cc(-c2cc(-c3cccc(O)c3)cnc2N)cc(OC)c1OC | true
C[C@H]1C[C@@H]2[C@H]([C@@H](O)C[C@@]3(C)[C@H]2CC[C@]3(O)C(=O)CO)[C@@]2(C)C=CC(=O)C=C12 | true
COc1cc(Cc2cnc(N)nc2N)cc(OC)c1OC | true
CCC(=O)NS(=O)(=O)c1ccc(-c2c(-c3ccccc3)noc2C)cc1 | false

Query: Threshold query (Euclidean distance >= 1) on CCCCC(CC)CN1CN(CC(CC)CCCC)CC(C)(N)C1 (stereo unspecified)
Response: true

Query: Could you please find out whether CN1CCN2c3ncccc3Cc3ccccc3C2C1 (stereo unspecified) has Euclidean distance that meets 1 or exceeds it?
Response: true

* * *

Tested on: DU145
Experiment: Euclidean distance of Cell Painting phenotypic profile (signed KS, 77 features) to DMSO centroid (dimensionless distance); 5 or 10 uM (library dependent); higher = stronger phenotypic change vs DMSO (phenoactivity)
Conditions: 48 h
Structures can show the parent of a compound that is named as a salt.
Respond with criterion met for Euclidean distance values of 1 and above, criterion not met for values below.

Worked set:
COC(=O)N[C@@H](C)CNc1nccc(-c2cn(C(C)C)nc2-c2cc(Cl)cc(NS(C)(=O)=O)c2F)n1 | criterion met
CCCCc1nc(-c2ccc(OCCCN(CC)CC)cc2)cn1-c1ccc(Oc2ccc(Cl)cc2)cc1 | criterion not met
CCOC(=O)c1ccc(N2NC(=O)C(=Cc3ccc([N+](=O)[O-])o3)C2=O)cc1 | criterion met
Cc1ccc2c(c1)C(=O)C1(O)CCN(c3ccccc3)C1=N2 (single isomer, unassigned; (-)) [(-)-Blebbistatin] | criterion met
CCCCC(=O)N(Cc1ccc(-c2ccccc2-c2nn[nH]n2)cc1)C(C(=O)O)C(C)C.CCOC(=O)C(C)CC(Cc1ccc(-c2ccccc2)cc1)NC(=O)CCC(=O)O (configuration not stated) | criterion met
Cc1ccsc1/C=C/C1=NCCCN1C [Morantel tartrate] | criterion not met

Query: Please tell me: is the molecule COc1cc(OC)c(/C=C/S(=O)(=O)Cc2ccc(OC)c(NCC(=O)O)c2)c(OC)c1 at or over 1 in terms of Euclidean distance?
Response: criterion met

Query: Decide: Euclidean distance of CCCCOCCOCCOCc1cc2c(cc1CCC)OCO2 [Piperonyl butoxide] >= 1?
Response: criterion not met

Query: # check: Euclidean distance of Oc1ccc([C@H]2COc3cc(O)ccc3C2)cc1 is greater than or equal to 1
Response: criterion met

Query: Item CC(/C=C/C(=O)NO)=C\[C@@H](C)C(=O)c1ccc(N(C)C)cc1 with Euclidean distance of 1 or above?
Response: criterion met

* * *

The molecules listed here are annotated with their Euclidean distance.
Tested on: DU145
Assay: Euclidean distance of Cell Painting phenotypic profile (signed KS, 77 features) to DMSO centroid (dimensionless distance); 5 or 10 uM (library dependent); higher = stronger phenotypic change vs DMSO (phenoactivity)
Details: 48 h
Structures can show the parent of a compound that is named as a salt.
Output spec: single numeric token, no unit.

The examples below pair each entry with its known result.
CC(C)NCC(O)c1ccc(O)c(O)c1 (stereo not drawn) [Isoprenaline HCl] | 1.07
CS(=O)(=O)Nc1cc2occ(NC=O)c(=O)c2cc1Oc1ccccc1 | 2.23

I looked up CC(=O)OC[C@H]1O[C@@H]([S-])[C@H](OC(C)=O)[C@@H](OC(C)=O)[C@@H]1OC(C)=O.CCP(CC)CC.[Au+] and its Euclidean distance for DU145 was 6.36

* * *

Tested on: 786-O
Test: Euclidean distance of Cell Painting phenotypic profile (signed KS, 77 features) to DMSO centroid (dimensionless distance); 5 or 10 uM (library dependent); higher = stronger phenotypic change vs DMSO (phenoactivity)
Details: 48 h
Counter-ions that a name gives are not always drawn.
Listed compounds paired with reported Euclidean distance

Reference set (3 entries):
CCN(CC)CCNC(=O)c1c(C)[nH]c(/C=C2\C(=O)Nc3ccc(-c4csc(-c5ccccc5)n4)cc32)c1C | 5.91
Cc1cccc(-c2[nH]c(C(C)(C)C)nc2-c2ccc3nccnc3c2)n1 | 1.56
O=C(Nc1ccccc1Br)N[C@@H]1CCN(c2ccc(C(F)(F)F)cn2)C1 | 0.896

Entry CCOc1cc2ncc(C#N)c(Nc3ccc(F)c(Cl)c3)c2cc1NC(=O)/C=C/CN(C)C [Pelitinib (EKB-569)] , Euclidean distance reported as 2.29

Given item C[N+]1(C)CCC(=C(c2ccccc2)c2ccccc2)CC1 [Diphemanil Methylsulfate] , the value recorded as its Euclidean distance is 1.08

Input CCN(CC)CCOC(=O)c1ccc(N)cc1 [Procaine] . Output Euclidean distance: 0.916

Just so you know, measured Euclidean distance for CC(=O)NS(=O)(=O)c1ccc(N)cc1 [Sulfacetamide Sodium] came out at 1.12

Lab note: CC(=O)Nc1ccc(CC(=O)O)cc1 gave Euclidean distance of 1.12

Quick note, Euclidean distance for COc1cc(Nc2ncc(F)c(Nc3ccc4c(n3)NC(=O)C(C)(C)O4)n2)cc(OC)c1OC [R406 (free base)] landed at 2.36

# compound Cc1ncc(C[n+]2csc(CCO)c2C)c(N)n1 [Thiamine HCl (Vitamin B1)] ; its Euclidean distance = 1.43

Notebook: CCN1/C(=C/C(C)=O)Sc2ccc(OC)cc21 , Euclidean distance read as 0.422

Measured Euclidean distance of CCn1cc(C(=O)O)c(=O)c2cc(F)c(N3CCNCC3)nc21 [Enoxacin Sesquihydrate] : 1.35

* * *

Test system: OVCAR4
Assay: Euclidean distance of Cell Painting phenotypic profile (signed KS, 77 features) to DMSO centroid (dimensionless distance); 5 or 10 uM (library dependent); higher = stronger phenotypic change vs DMSO (phenoactivity)
Details: 48 h
Where a name gives a salt, the structure may show the parent alone.
Criterion: Euclidean distance meeting or surpassing 1. Met: y. Not met: n.

Illustrative cases are given below, each with its answer.
C[C@@H](OC[C@@]1(c2ccccc2)CC[C@]2(CCC(=O)N2)CN1)c1cc(C(F)(F)F)cc(C(F)(F)F)c1 | y
COCCNCc1ccc(-c2cc3nccc(Oc4ccc(NC(=O)C5(C(=O)Nc6ccc(F)cc6)CC5)cc4F)c3s2)nc1 | y
COc1cccc2c1C(=O)c1c(O)c3c(c(O)c1C2=O)C[C@@](O)(C(=O)CO)C[C@@H]3O[C@H]1C[C@H](N)[C@@H](O)[C@H](C)O1 [Epirubicin HCl] | y
C[C@H]1NCc2cc(-c3ccc4c(=O)c(C(=O)O)cn(C5CC5)c4c3OC(F)F)ccc21 | y

Now, please, on to the next molecule.
Query: Reported Euclidean distance at or above 1? O=C1N=C(O)NC1(c1ccccc1)c1ccccc1 [Phenytoin Sodium]
Response: n

* * *

Test system: OVCAR4
Test: Euclidean distance of Cell Painting phenotypic profile (signed KS, 77 features) to DMSO centroid (dimensionless distance); 5 or 10 uM (library dependent); higher = stronger phenotypic change vs DMSO (phenoactivity)
Settings: 48 h
Structures can show the parent of a compound that is named as a salt.
Euclidean distance values, listed per item
Lab note: record the figure alone, no unit after it.

CN[C@@H]1[C@H](O)[C@H](NC)[C@H]2O[C@@]3(O)C(=O)C[C@@H](C)O[C@H]3O[C@@H]2[C@H]1O [Spectinomycin HCl] | 1.02
CCC(NC(C)C)C(O)c1ccc(O)c(O)c1 (configuration not stated) [Isoetharine Mesylate] | 1.01
COc1nc2ccc(Br)cc2cc1[C@@H](c1ccccc1)[C@@](O)(CCN(C)C)c1cccc2ccccc12 | 0.927
CC1(C)S[C@@H]2[C@H](NC(=O)COc3ccccc3)C(=O)N2[C@H]1C(=O)O [Penicillin V potassium salt] | 1.67
CCCCC1=NC2(CCCC2)C(=O)N1Cc1ccc(-c2ccccc2-c2nnn[nH]2)cc1 | 1.79
Cc1cc(/C=C/c2ccc3cc(N(C)C)ccc3[n+]2C)c(C)n1-c1ccccc1 | 5.35
C[C@H]1O[C@@H](n2cc(F)c(=O)[nH]c2=O)[C@H](O)[C@@H]1O | 1.03
Cc1ncc([N+](=O)[O-])n1CC(C)O (configuration not stated) | 0.655
CC(C)(C)NS(=O)(=O)c1cncc(-c2cc(F)c3nc(N)nn3c2)c1 | 1.09
Cc1cccc(-c2[nH]c(CNc3ccccc3F)nc2-c2ccc3ncnn3c2)n1 | 1.5

The reported OVCAR4 Euclidean distance of CCN[C@H]1C[C@H](C)S(=O)(=O)c2sc(S(N)(=O)=O)cc21 [Dorzolamide HCl] is 1.09

Euclidean distance on OVCAR4 for CCNC(=O)[C@H]1O[C@@H](n2cnc3c(N)nc(NCCc4ccc(CCC(=O)O)cc4)nc32)[C@H](O)[C@@H]1O is 0.752

Response field Euclidean distance (OVCAR4) for item COc1ccc2c(c1)C(=O)N(CCc1ccc(S(=O)(=O)NC(=O)NC3CCCCC3)cc1)C(=O)C2(C)C : 0.973
